experiment notes: equilibrium solubility experiments in buffer media at different pH conditions
Format: physicochemical
conditions: buffer media, pH 6, aqueous buffer, thermodynamic from solid, pH 6.0 buffer, 1 h
Excerpt: Additionally, the present invention conducted equilibrium solubility experiments of the monohydrate crystalline API, amorphous API, and hot-melt extrudate dispersion intermediate in buffer media at different pH conditions. Table 3. Summary of equilibrium solubility (µg/ml) of monohydrate crystalline API, amorphous API, and hot-melt extrudate dispersion intermediate
quantity name: solubility at 1 h (µg/mL)
The figure you give is taken to be in µg/mL; do not add the unit.

q: Requested read-out: solubility at 1 h. Entry: Cc1nnc(-c2cc(C(=O)N3CCC(c4ccc(C#N)cc4)CC3)c(C)cc2C2CCC2)[nH]1
a: 0.5
